Data provenance: patent US20250100996A1

# Test Target: IKZF2 (Helios) (Homo sapiens)
# Construct: Leu-Asp junction (codons ctcgac before the linker); mScarlet (behind P2A) (C, cleaved yes); expressed in transfected cells
# Sequence (Q9UKS7 whole entry): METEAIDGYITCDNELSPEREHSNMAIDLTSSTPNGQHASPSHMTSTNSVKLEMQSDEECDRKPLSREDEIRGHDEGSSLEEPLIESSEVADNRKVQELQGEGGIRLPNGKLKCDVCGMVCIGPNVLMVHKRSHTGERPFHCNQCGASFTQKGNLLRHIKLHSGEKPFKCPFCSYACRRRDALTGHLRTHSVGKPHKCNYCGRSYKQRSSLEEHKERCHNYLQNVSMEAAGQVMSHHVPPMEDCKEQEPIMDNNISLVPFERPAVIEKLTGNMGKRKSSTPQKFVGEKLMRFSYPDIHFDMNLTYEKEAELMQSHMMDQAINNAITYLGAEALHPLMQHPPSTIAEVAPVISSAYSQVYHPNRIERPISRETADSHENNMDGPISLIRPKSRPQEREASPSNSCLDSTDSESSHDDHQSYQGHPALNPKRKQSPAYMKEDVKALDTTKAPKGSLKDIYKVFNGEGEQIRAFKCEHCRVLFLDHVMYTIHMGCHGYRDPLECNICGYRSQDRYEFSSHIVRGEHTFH
# Sequence (Q96SW2 whole entry, further chain): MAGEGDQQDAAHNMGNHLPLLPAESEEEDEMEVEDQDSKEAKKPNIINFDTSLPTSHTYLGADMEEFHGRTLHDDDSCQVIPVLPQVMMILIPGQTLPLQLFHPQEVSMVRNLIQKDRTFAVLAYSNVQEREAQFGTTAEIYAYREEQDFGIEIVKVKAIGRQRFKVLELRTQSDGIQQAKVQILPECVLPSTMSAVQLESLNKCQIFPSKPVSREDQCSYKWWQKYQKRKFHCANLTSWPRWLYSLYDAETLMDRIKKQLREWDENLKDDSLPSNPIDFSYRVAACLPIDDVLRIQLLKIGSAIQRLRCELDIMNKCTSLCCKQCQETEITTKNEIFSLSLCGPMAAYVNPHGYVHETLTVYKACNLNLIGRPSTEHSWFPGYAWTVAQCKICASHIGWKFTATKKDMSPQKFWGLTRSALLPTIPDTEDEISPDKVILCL
# Sequence (Q16531 whole entry partner): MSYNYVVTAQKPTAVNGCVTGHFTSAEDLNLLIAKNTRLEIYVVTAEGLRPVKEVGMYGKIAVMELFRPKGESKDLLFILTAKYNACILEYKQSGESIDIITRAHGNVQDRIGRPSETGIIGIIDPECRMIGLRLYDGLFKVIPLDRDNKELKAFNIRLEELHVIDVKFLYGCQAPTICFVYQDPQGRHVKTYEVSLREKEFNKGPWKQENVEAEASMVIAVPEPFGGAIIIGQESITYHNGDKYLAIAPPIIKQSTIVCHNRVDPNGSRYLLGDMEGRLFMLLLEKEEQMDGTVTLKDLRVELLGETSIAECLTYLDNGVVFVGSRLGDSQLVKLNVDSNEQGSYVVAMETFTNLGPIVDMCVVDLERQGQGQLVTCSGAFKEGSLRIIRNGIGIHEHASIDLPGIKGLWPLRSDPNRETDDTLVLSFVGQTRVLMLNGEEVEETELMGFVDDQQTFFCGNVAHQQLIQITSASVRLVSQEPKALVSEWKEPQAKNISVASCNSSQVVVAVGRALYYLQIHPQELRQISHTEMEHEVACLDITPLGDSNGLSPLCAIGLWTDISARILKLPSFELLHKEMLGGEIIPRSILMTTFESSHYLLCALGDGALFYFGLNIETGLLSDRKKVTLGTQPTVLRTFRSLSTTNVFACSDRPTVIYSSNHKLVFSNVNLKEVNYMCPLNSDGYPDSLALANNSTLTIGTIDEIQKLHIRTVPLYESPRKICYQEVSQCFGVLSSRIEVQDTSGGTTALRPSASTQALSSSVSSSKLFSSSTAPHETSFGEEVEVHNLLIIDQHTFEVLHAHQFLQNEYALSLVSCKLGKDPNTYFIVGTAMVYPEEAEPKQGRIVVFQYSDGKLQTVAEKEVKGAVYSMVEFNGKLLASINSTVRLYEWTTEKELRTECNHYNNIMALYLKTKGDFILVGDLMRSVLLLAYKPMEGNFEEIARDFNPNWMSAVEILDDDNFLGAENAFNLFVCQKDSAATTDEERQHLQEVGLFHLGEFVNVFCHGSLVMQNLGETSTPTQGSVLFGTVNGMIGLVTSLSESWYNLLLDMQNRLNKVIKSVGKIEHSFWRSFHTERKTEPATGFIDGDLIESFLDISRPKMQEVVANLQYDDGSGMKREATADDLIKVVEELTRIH
# Protocol: IKZF2 reporter degradation assay (HEK 293T IKZF2-mNeonGreen reporter cell line)
# Type: cell-based
# Stated Conditions: HEK 293T IKZF2-mNeonGreen reporter, 24 hours incubation
DC50 reference
Only the number, expressed in nM, is required.

Completed entries (count: 3):
Compound	Endpoint	Reading
O=C1CCC(N2Cc3cc(O[C@@H]4CCCC[C@H]4N4CC(c5ccc(C(F)(F)F)cn5)C4)ccc3C2=O)C(=O)N1 (single isomer, unassigned) [Compound 129-B]	DC50	20
Cc1ccnc(C2CN([C@H]3CCCC[C@@H]3Oc3ccc4c(c3)CN(C3CCC(=O)NC3=O)C4=O)C2)n1 (mixture of isomers)	DC50	240
O=C1CCC(N2Cc3cc(O[C@@H]4CCCC[C@@H]4N4CC(c5ncncc5Cl)C4)ccc3C2=O)C(=O)N1 (mixture of isomers) [Compound 139-B]	DC50	33

Q. Dear colleague, please send me the reported DC50 for O=C1CCC(N2Cc3cc(OC4CCCC4N4CC(c5cnc6ccccc6n5)C4)ccc3C2=O)C(=O)N1 (stereo not drawn) when you can.
A. 130

Q. Give a short answer stating reported DC50 for Cc1ccnc(C2CN([C@H]3CCCC[C@H]3Oc3ccc4c(c3)CN(C3CCC(=O)NC3=O)C4=O)C2)n1 (mixture of isomers) .
A. 21
